Molecular target: human GCG receptor (human, UniProt P47871 26-477)
Sequence (P47871 26-477): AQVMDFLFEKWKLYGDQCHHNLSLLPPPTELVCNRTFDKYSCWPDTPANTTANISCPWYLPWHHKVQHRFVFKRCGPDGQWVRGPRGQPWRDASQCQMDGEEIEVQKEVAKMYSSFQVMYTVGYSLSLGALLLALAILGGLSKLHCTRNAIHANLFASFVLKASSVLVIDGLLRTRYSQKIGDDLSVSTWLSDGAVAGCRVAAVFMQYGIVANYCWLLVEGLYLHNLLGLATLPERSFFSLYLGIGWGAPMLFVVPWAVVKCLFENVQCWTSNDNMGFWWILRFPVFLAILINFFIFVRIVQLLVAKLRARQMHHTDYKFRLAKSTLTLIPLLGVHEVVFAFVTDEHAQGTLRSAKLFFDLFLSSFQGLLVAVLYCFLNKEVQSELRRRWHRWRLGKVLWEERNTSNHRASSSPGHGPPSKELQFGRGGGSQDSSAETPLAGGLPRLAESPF
Assay: cell-based or functional assay
Bridge positions count the residues as written; N and C are the ends. Square brackets hold non-standard residues; d marks the D form. Ends that are not written are not given here. Aib = CC(C)(N)C(=O)O
recorded_metric: In vitro activity compared to native peptide (%) vs Glucagon
Quick note: give the figure in %, leave out the unit.

Check out these entries, answers already filled in.
{"columns": ["binder", "units", "measured"],
 "data": [
  ["H[Aib]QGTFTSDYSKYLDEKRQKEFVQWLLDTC (bridge 16-20) [Triple agonist of SEQ ID NO: 52]", "%", 7.5],
  ["H[Aib]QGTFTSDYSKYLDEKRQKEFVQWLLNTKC (bridge 16-20) [Triple agonist of SEQ ID NO: 58]", "%", 2.6],
  ["Y[Aib]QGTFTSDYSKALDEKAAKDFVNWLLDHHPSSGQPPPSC (bridge 16-20) [Triple agonist of SEQ ID NO: 99]", "%", 14.9]
]}

Which In vitro activity compared to native peptide (%) vs Glucagon value is on record for H[Aib]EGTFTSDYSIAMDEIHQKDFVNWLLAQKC (bridge 16-20) [Triple agonist of SEQ ID NO: 79] ? 4.9

Data provenance is patent US20230381281A1.
